Hello, the source for this data is paper PMC9635080, in case you need it.

Measured melting point of individual entries

Sample answers from the record:
>>> observed_result("O=c1oc2ccccc2c(O)c1C(c1cccc(Cl)c1)c1c[nH]c2ccccc12 (stereo not shown)")
"205 to 207 °C"
>>> observed_result("O=c1oc2ccccc2c(O)c1C(c1ccccc1[N+](=O)[O-])c1c[nH]c2ccccc12 (stereo not shown)")
"240 to 242 °C"
>>> observed_result("O=c1oc2ccccc2c(O)c1C(c1ccccc1)c1c[nH]c2ccccc12 (stereo not shown)")
"231 to 233 °C"

Return reported melting point; argument: O=c1oc2ccccc2c(O)c1C(c1ccc(F)cc1)c1c[nH]c2ccccc12 (stereo not shown)
243 to 245 °C

Return reported melting point; argument: O=c1oc2ccccc2c(O)c1C(c1ccc(Cl)cc1)c1c[nH]c2ccccc12 (stereo not shown)
235 to 237 °C

Return reported melting point; argument: O=c1oc2ccccc2c(O)c1C(c1cccc(F)c1)c1c[nH]c2ccccc12 (stereo not shown)
222 to 224 °C

Return reported melting point; argument: Cc1ccc(C(c2c(O)c3ccccc3oc2=O)c2c[nH]c3ccccc23)cc1 (stereo not shown)
269 to 271 °C

Return reported melting point; argument: O=c1oc2ccccc2c(O)c1C(c1cccc(O)c1)c1c[nH]c2ccccc12 (stereo not shown)
200 to 202 °C

Return reported melting point; argument: COc1ccc(C(c2c(O)c3ccccc3oc2=O)c2c[nH]c3ccccc23)cc1 (stereo not shown)
246 to 248 °C

Return reported melting point; argument: O=c1oc2ccccc2c(O)c1C(c1cccc([N+](=O)[O-])c1)c1c[nH]c2ccccc12 (stereo not shown)
198 to 200 °C

Return reported melting point; argument: O=c1oc2ccccc2c(O)c1C(c1cccc(Oc2ccccc2)c1)c1c[nH]c2ccccc12 (stereo not shown)
183 to 185 °C

Return reported melting point; argument: O=c1oc2ccccc2c(O)c1C(c1ccc(O)cc1)c1c[nH]c2ccccc12 (stereo not shown)
286 to 288 °C

Return reported melting point; argument: O=c1oc2ccccc2c(O)c1C(c1cccc(Br)c1)c1c[nH]c2ccccc12 (stereo not shown)
212 to 214 °C
